These entries and their values trace back to patent US7897602B2.

Target: Aurora A kinase (Homo sapiens, UniProt O14965)
Construct: purchased Upstate
Assay: Aurora A kinase assay ([γ-33P]ATP, CHOCKtide substrate)
Assay type: biochemical
Settings: 1.0 μM test compound
READOUT TYPE: inhibition at 1 µM (%)

> print(dat)
                        structure.as.smiles        readout.type  recorded.measurement
1  COc1ccc2c(c1)/C(=C/c1[nH]c3c(c1CCC(=O)O)C(=O)CCCC3)C(=O)N2  inhibition at 1 µM                  75.6

(1) CCOC(=O)CCc1c(/C=C2\C(=O)Nc3cc(-c4ccc(O)c(OC)c4)ccc32)[nH]c2c1C(=O)CCC2
(2) CC(=O)c1c(C)[nH]c(/C=C2\C(=O)Nc3ccc(S(=O)(=O)N4CCc5ccccc54)cc32)c1CCC(=O)O
(3) O=C(O)CCc1c(/C=C2\C(=O)Nc3ccc([N+](=O)[O-])cc32)[nH]c2c1C(=O)CCC2
Data request: // ranking: key=inhibition at 1 µM, reverse=True Give the order by naming the labels one after another as requested.
Data returned: 2, 3, 1
(2: 95.5%, 3: 56.6%, 1: 27.7%)

----------
Sequence of the target: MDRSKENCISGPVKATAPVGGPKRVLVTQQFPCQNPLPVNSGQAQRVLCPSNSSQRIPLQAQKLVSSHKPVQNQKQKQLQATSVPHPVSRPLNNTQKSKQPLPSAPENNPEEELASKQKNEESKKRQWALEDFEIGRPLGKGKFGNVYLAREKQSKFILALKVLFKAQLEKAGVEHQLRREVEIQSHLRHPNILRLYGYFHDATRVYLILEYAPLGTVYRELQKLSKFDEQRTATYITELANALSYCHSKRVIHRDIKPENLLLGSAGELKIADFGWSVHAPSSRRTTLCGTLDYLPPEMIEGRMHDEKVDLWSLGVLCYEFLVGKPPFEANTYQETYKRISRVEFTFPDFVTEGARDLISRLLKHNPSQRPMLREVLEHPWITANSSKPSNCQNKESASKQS
READOUT TYPE: IC50 (nM)

Would you please look over these solved cases?
> print(dat)
                                   molecule  recorded.measurement
1  CCOC(=O)CCc1c(/C=C2\C(=O)Nc3ccc(NS(=O)(=O)c4ccccc4)cc32)[nH]c2c1C(=O)CCCC2 [DCB-70146]                  86.3
2  O=C(O)CCc1c(/C=C2\C(=O)Nc3ccc(S(=O)(=O)Cc4ccccc4)cc32)[nH]c2c1C(=O)CCC2 [DCB-70071]                   270

(1) CCOC(=O)CCc1c(/C=C2\C(=O)Nc3ccc(S(=O)(=O)NC)cc32)[nH]c2c1C(=O)CCC2 [DCB-70064]
(2) CC(=O)c1c(C)[nH]c(/C=C2\C(=O)Nc3ccc(S(=O)(=O)N4CCc5ccccc54)cc32)c1CCC(=O)O [DCB-70188]
(3) O=C(O)CCc1c(/C=C2\C(=O)Nc3ccc(NS(=O)(=O)c4ccccc4)cc32)[nH]c2c1C(=O)CCC2 [DCB-70103]
(4) O=C(O)CCc1c(/C=C2\C(=O)Nc3ccc(NS(=O)(=O)c4ccccc4)cc32)[nH]c2c1C(=O)CCCC2 [DCB-70147]
Data request: Rank the 4 molecules: largest IC50 first, smallest last. List labels; respect the requested ordering.
Data returned: 1, 4, 2, 3

(A) CC(=O)Nc1ccc2c(c1)/C(=C/c1[nH]c3c(c1CCC(=O)O)C(=O)CCC3)C(=O)N2 [DCB-70104]
(B) O=C(O)CCc1c(/C=C2\C(=O)Nc3ccc(S(=O)(=O)N4CCCCC4)cc32)[nH]c2c1C(=O)CCC2 [DCB-70114]
(C) O=C(O)CCc1c(/C=C2\C(=O)Nc3ccc(S(=O)(=O)N4CCc5ccccc54)cc32)[nH]c2c1C(=O)CCC2 [DCB-70106]
(D) COc1ccc2c(c1)/C(=C/c1[nH]c3c(c1CCC(=O)O)C(=O)CCC3)C(=O)N2 [DCB-70167]
(E) CCOC(=O)CCc1c(/C=C2\C(=O)Nc3ccc(F)cc32)[nH]c2c1C(=O)CCC2 [DCB-70053]
Data request: Sort entries by IC50 from minimum to maximum value. Could you list the labels in the order requested?
Data returned: C, B, D, A, E

(a) CCOC(=O)CCc1c(/C=C2\C(=O)Nc3ccc(S(=O)(=O)N4CCc5ccccc54)cc32)[nH]c2c1C(=O)CCC2 [DCB-70210]
(b) NS(=O)(=O)c1ccc2c(c1)/C(=C/c1[nH]c3c(c1CCC(=O)O)C(=O)CCC3)C(=O)N2 [DCB-70095]
Data request: Would you let me know which has the greater IC50 value, a or b ? Lab log: write the label of the selected item as the result.
Data returned: a

----------
Molecular target: PDGFR-β kinase (Homo sapiens, UniProt P09619)
Construct: recombinant N-terminal 6×His-tagged PDGFR-β kinase domain construct expressed by baculovirus; 6xHis (N); made in house
Sequence (P09619 600-962 limits assumed): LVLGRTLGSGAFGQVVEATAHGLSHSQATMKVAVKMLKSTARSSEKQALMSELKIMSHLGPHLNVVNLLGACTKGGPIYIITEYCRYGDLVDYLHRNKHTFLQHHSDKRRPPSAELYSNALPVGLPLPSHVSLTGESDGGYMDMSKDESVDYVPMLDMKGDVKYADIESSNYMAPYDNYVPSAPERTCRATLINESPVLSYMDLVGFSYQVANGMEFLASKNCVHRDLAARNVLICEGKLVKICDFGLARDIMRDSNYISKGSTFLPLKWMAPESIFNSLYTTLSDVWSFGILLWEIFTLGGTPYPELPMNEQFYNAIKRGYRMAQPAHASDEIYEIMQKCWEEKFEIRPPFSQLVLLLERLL
Test: PDGFR-β kinase assay (33P incorporation into Poly(Glu-Tyr))
Assay type: biochemical
Details: 500 nM test compound
READOUT TYPE: inhibition at 0.5 µM (%)

Some solved cases for reference:
> print(dat)
                        structure.as.smiles          readout.type  recorded.measurement
1  COc1ccc(C(=O)Nc2ccc3c(c2)/C(=C/c2[nH]c4c(c2CCC(=O)O)C(=O)CCC4)C(=O)N3)cc1  inhibition at 0.5 µM                     1
2  O=C(O)CCc1c(C=C2C(=S)Nc3ccccc32)[nH]c2c1C(=O)CCC2  inhibition at 0.5 µM                     6
3  CCOC(=O)CCc1c(/C=C2\C(=O)Nc3ccc(F)cc32)[nH]c2c1C(=O)CCC2  inhibition at 0.5 µM                  82.3
4  CCOC(=O)CCc1c(/C=C2\C(=O)Nc3cc(-c4cc(F)cc(F)c4)ccc32)[nH]c2c1C(=O)CCC2  inhibition at 0.5 µM                  20.3
5  CCOC(=O)CCc1c(/C=C2\C(=O)Nc3ccc(NC(=O)c4ccc([N+](=O)[O-])cc4)cc32)[nH]c2c1C(=O)CCC2  inhibition at 0.5 µM                   7.5

(P) CCOC(=O)CCc1c(/C=C2\C(=O)Nc3ccc(S(=O)(=O)NC)cc32)[nH]c2c1C(=O)CCC2
(Q) O=C(O)CCc1c(/C=C2\C(=O)Nc3ccc(S(=O)(=O)Nc4ccc(F)c(Cl)c4)cc32)[nH]c2c1C(=O)CCCC2
Data request: Of P and Q , whose reported inhibition at 0.5 µM is numerically smaller? Pick one; state its label.
Data returned: Q
(Q: 10.8%, P: 56.7%)

----------
Target: c-Met kinase (Homo sapiens, UniProt P08581)
Construct: recombinant N-terminal 6×His-tagged c-Met kinase domain construct expressed from baculovirus; 6xHis (N); made in house
Sequence (P08581 1078-1345 limits assumed): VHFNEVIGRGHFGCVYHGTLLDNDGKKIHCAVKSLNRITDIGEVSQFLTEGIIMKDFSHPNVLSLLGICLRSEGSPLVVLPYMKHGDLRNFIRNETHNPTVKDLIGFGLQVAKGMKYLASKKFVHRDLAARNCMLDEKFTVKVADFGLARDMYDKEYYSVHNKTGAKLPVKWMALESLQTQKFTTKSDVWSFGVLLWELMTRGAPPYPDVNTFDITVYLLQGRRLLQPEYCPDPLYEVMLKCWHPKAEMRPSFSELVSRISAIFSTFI
Assay: c-Met kinase assay (33P incorporation into Poly(Glu-Tyr))
Format: biochemical
Conditions: 500 nM test compound
Where a name gives a salt, the structure may show the parent alone.
READOUT TYPE: inhibition at 0.5 µM (%)

Examples with answers:
> print(dat)
                                   compound  recorded.measurement
1  COc1cc(-c2ccc3c(c2)/C(=C/c2[nH]c4c(c2CCC(=O)O)C(=O)CCC4)C(=O)N3)ccc1O                  16.3
2  CCOC(=O)CCc1c(/C=C2\C(=O)Nc3cc(-c4cc(F)cc(F)c4)ccc32)[nH]c2c1C(=O)CCC2                  13.1
3  O=C(O)CCc1c(/C=C2\C(=O)Nc3ccc(-c4cc5ccccc5s4)cc32)[nH]c2c1C(=O)CCC2                  19.7

(P) O=C(O)CCc1c(/C=C2\C(=O)Nc3ccc(NS(=O)(=O)c4ccc5ccccc5c4)cc32)[nH]c2c1C(=O)CCC2
(Q) CNS(=O)(=O)c1ccc2c(c1)/C(=C/c1[nH]c3c(c1CCC(=O)N1CCN(C)CC1)C(=O)CCC3)C(=O)N2
(R) CCOC(=O)CCc1c(/C=C2\C(=O)Nc3ccc(/N=C/c4ccsc4)cc32)[nH]c2c1C(=O)CCC2
(S) CCOC(=O)CCc1c(/C=C2\C(=O)Nc3ccc(NC(=O)Nc4ccc(OC)cc4)cc32)[nH]c2c1C(=O)CCC2
Data request: List items by inhibition at 0.5 µM in falling order. # the answer lists labels in the order requested
Data returned: Q, S, P, R

(1) O=C(O)CCc1c(/C=C2\C(=O)Nc3cc(F)ccc32)[nH]c2c1C(=O)CCC2
(2) CCS(=O)(=O)c1ccc2c(c1)/C(=C/c1[nH]c3c(c1CCC(=O)O)C(=O)CCC3)C(=O)N2
(3) CN1CCN(S(=O)(=O)c2ccc3c(c2)/C(=C/c2[nH]c4c(c2CCC(=O)O)C(=O)CCC4)C(=O)N3)CC1 [DCB-70107, hydrochloride]
(4) CCCCCCC#Cc1ccc2c(c1)NC(=O)/C2=C\c1[nH]c2c(c1CCC(=O)OCC)C(=O)CCC2
(5) O=C(O)CCc1c(/C=C2\C(=O)Nc3cc(-c4ccc(F)cc4)ccc32)[nH]c2c1C(=O)CCC2
Data request: Please give the order of these compounds when sorted by inhibition at 0.5 µM, largest value leading. # format: label list in the order the request specifies
Data returned: 3, 2, 5, 4, 1

(1) O=C(O)CCc1c(/C=C2\C(=O)Nc3cc(-c4ccc(O)cc4)ccc32)[nH]c2c1C(=O)CCCC2
(2) O=C(O)CCc1c(/C=C2\C(=O)Nc3ccc(S(=O)(=O)Cc4ccc(F)cc4)cc32)[nH]c2c1C(=O)CCC2
Data request: // pick larger inhibition at 0.5 µM from pair: 1 vs 2 Give the label of your selection.
Data returned: 2
(2: 62.8%, 1: -6.5%)
